All values here come from paper PMC12221113.

biological target: KLK8 (Homo sapiens, UniProt O60259)
property.name: Ki
Number first, unit second.

Value of Ki reported for the compound O=C(NC(Cc1c[nH]c2ccccc12)C(=O)O)c1ccc(-n2nc(-c3ccccc3O)nc2-c2ccccc2O)cc1 (stereo not shown) [3lb] is 12 µM

* * *

IC50: recorded values
Molecular target: KLK8 (Homo sapiens, UniProt O60259)
Sequence (O60259 33-260): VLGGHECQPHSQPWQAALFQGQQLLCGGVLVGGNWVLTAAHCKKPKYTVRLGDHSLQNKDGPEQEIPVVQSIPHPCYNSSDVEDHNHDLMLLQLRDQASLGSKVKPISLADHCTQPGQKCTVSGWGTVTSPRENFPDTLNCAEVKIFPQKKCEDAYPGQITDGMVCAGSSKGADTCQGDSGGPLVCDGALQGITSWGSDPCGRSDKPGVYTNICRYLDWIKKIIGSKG
Assay: KLK8 fluorogenic enzyme inhibition assay (Boc-VPR-AMC)

Please review the entries below; each comes with its answer.
CC(=O)Oc1ccccc1-c1nc(-c2ccccc2OC(C)=O)n(-c2ccc(C(=O)O)cc2)n1: > 50 µM
NS(=O)(=O)c1ccc(-n2nc(-c3ccccc3O)nc2-c2ccccc2O)cc1: > 50 µM
O=C(O)CNC(=O)c1ccc(-n2nc(-c3ccccc3O)nc2-c2ccccc2O)cc1: 27 µM

Short answer for COc1ccc(-c2nc(-c3ccccc3O)nn2-c2ccc(C(=O)O)cc2)c(O)c1 : IC50 was 24.8 µM

Value of IC50 reported for the compound COC(=O)c1ccc(-n2nc(-c3ccccc3O)nc2-c2ccccc2O)cc1 is > 50 µM

According to the records, this compound O=C(O)Cn1nc(-c2ccccc2O)nc1-c1ccccc1O displays IC50 of > 50 µM

* * *

Hi! I'm sharing some Ki results obtained with KLK1 (Homo sapiens, UniProt P06870).
Sequence (P06870 25-262): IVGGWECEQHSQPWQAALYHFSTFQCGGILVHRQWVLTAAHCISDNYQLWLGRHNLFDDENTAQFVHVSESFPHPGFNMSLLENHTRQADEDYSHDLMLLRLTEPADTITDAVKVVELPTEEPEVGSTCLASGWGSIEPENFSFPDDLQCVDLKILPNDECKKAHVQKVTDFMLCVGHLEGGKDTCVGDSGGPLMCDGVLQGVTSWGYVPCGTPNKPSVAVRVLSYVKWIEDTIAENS
# answer = value followed by unit

Oc1ccc(-n2nc(-c3ccccc3O)nc2-c2ccccc2O)cc1: 29 µM

Field: next compound
The measured Ki associated with O=C(c1ccccc1)n1nc(-c2ccccc2O)nc1-c1ccccc1O reads 24 µM

* * *

Listed compounds paired with reported pIC50
target: KLK8 (Homo sapiens); experiment: KLK8 fluorogenic enzyme inhibition assay (Boc-VPR-AMC)
Lab note: report pIC50 as minus log10 of the concentration in molar units, number only.

As a guide, the following entries are already answered.
O=C(NC(Cc1ccccc1)C(=O)O)c1ccc(-n2nc(-c3ccccc3O)nc2-c2ccccc2O)cc1 (stereo not drawn): 4.61
NC(=O)c1ccc(-n2nc(-c3ccccc3O)nc2-c2ccccc2O)cc1: 4.63
O=S(=O)(O)c1ccc(-n2nc(-c3ccccc3O)nc2-c2ccccc2O)cc1: 4.53

Measured pIC50 of O=C(O)c1ccc(-n2nc(-c3ccccc3)nc2-c2ccccc2O)cc1 : 4.33

* * *

target: KLK8 (Homo sapiens); experiment: KLK8 fluorogenic enzyme inhibition assay (Boc-VPR-AMC)
property.name: IC50

O=C(O)c1ccc(-n2nc(-c3ccccc3O)nc2-c2ccc(O)cc2O)cc1 [compound 14]: 38.3 µM
Oc1ccccc1-c1nc(-c2ccccc2O)n(-c2ccc(Br)cc2)n1 [3p]: > 50 µM
O=C(O)C1CCCN1C(=O)c1ccc(-n2nc(-c3ccccc3O)nc2-c2ccccc2O)cc1 (stereo not drawn) [3mb]: 25.9 µM
CCOC(=O)Cn1nc(-c2ccccc2O)nc1-c1ccccc1O [3g]: > 50 µM
O=C(NC(Cc1c[nH]c2ccccc12)C(=O)O)c1ccc(-n2nc(-c3ccccc3O)nc2-c2ccccc2O)cc1 (stereo not drawn) [3lb]: 27.1 µM
N#Cc1ccc(-n2nc(-c3ccccc3O)nc2-c2ccccc2O)cc1 [3o]: > 50 µM
COC(=O)C(Cc1ccccc1)NC(=O)c1ccc(-n2nc(-c3ccccc3O)nc2-c2ccccc2O)cc1 (stereo not drawn) [3ka]: > 50 µM
COC(=O)C(Cc1c[nH]c2ccccc12)NC(=O)c1ccc(-n2nc(-c3ccccc3O)nc2-c2ccccc2O)cc1 (stereo not drawn) [3la]: > 50 µM

Now examine the next entry.
Entry CCOC(=O)[C@H]1CC[C@H](n2nc(-c3ccccc3O)nc2-c2ccccc2O)CC1 [3fa] , IC50 reported as > 50 µM

* * *

Entries annotated with measured inhibition at 50 µM
target: KLK11 (Homo sapiens, UniProt Q9UBX7); construct: purchased R&D Systems; test: Selectivity screening, KLK11; type: biochemical; settings: 50 μM compound, without Fe3+; read-out: percentage of inhibition KLK11
Sequence (Q9UBX7 54-282): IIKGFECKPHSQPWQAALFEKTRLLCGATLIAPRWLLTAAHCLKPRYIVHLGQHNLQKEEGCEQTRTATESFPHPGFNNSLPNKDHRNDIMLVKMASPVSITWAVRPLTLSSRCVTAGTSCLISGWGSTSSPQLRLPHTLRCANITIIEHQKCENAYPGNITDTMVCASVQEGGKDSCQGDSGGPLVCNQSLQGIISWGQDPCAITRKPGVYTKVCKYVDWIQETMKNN
Kindly report the value followed by its unit.

Example entries begin here.
O=C(O)C1CCCN1C(=O)c1ccc(-n2nc(-c3ccccc3O)nc2-c2ccccc2O)cc1 (stereo not shown) [3mb]: 76.7%
O=C(O)c1cccc(-n2nc(-c3ccccc3O)nc2-c2ccccc2O)c1 [3b]: 90.9%
O=C(NC(Cc1c[nH]c2ccccc12)C(=O)O)c1ccc(-n2nc(-c3ccccc3O)nc2-c2ccccc2O)cc1 (stereo not shown) [3lb]: 81.4%

Let's switch to this molecule now.
For this molecule ( O=C(O)c1ccc(-n2nc(-c3ccccc3O)nc2-c2ccccc2O)cc1 [3a, Deferasirox] ), measured inhibition at 50 µM is 90.6%
